# TEST SYSTEM: mouse α-synuclein pre-formed fibrils (mouse)
# TEST: other fluorescence titration

SUBSTANCE	Kd (µM)
BODIPY630/650-labelled PSMα3 peptide probe P1	1.4
